Target: Mushroom-derived tyrosinase
Assay: Inhibitory effect on tyrosinase activity (mushroom tyrosinase, L-tyrosine substrate, absorbance at 490 nm)
Details: mushroom tyrosinase, 1.5 mM L-tyrosine, pH 6.5, 37° C. for 20 minutes, absorbance at 490 nm; read-out: Inhibition of tyrosinase activity (IC50)
Property Label: IC50 (µM)

A. Cc1cccc(C(=O)OCc2cc(=O)c(O)co2)c1O
B. Cc1ccc(C(=O)OCc2cc(=O)c(O)co2)c(O)c1
C. Cc1ccc(O)c(C(=O)OCc2cc(=O)c(O)co2)c1
Q. // rank the listed compounds by IC50, lowest value first Arrange the labels as the request states and list them.
A. B, A, C

----------
Target: Mushroom-derived tyrosinase
Test: Inhibitory effect on tyrosinase activity (mushroom tyrosinase, L-tyrosine substrate, absorbance at 490 nm)
Details: mushroom tyrosinase, 1.5 mM L-tyrosine, pH 6.5, 37° C. for 20 minutes, absorbance at 490 nm; read-out: Inhibition of tyrosinase activity (IC50)
pIC50: −log10 of the molar value.
Property Label: pIC50

Molecule	Target System	Property Label	Observed Measurement
COc1ccc(O)c(C(=O)OCc2cc(=O)c(O)co2)c1	Mushroom-derived tyrosinase	pIC50	5.48
COc1ccc(C(=O)OCc2cc(=O)c(O)co2)c(O)c1	Mushroom-derived tyrosinase	pIC50	5.38
O=c1cc(CO)occ1O [Kojic acid, reference compound]	Mushroom-derived tyrosinase	pIC50	4.39
COc1cccc(C(=O)OCc2cc(=O)c(O)co2)c1O	Mushroom-derived tyrosinase	pIC50	5.38
